Cited source for all entries: the supplement of paper PMC7411640

- System: MDA-MB-468
- Protocol: phospho-S6 immunofluorescence (DAPI-normalised), per-plate z-score; higher = higher phospho-S6 signal (less pathway suppression)
- Details: co-treatment: GDC0941 450 nM; 24 h
Structures can show the parent of a compound that is named as a salt.
Param threshold (0.2) applies to phospho-S6 immunofluorescence (z-score); output rule met when value >= threshold, rule not met when value < threshold.

Please check the record CN1CCN(C2=Nc3cc(Cl)ccc3Nc3ccccc32)CC1 [Clozapine] (compound 10 µM) and state if its phospho-S6 immunofluorescence (z-score) is at or above 0.2.
rule not met

Can CCOc1nc2cccc(C(=O)O)c2n1Cc1ccc(-c2ccccc2-c2noc(=O)[nH]2)cc1 [Azilsartan] (compound 10 µM) be said to have phospho-S6 immunofluorescence (z-score) at or above 0.2?
rule not met

Check the entry CCOC(=O)N1CCC(=C2c3ccc(Cl)cc3CCc3cccnc32)CC1 [Loratadine] (compound 10 µM) : does phospho-S6 immunofluorescence (z-score) equal or exceed 0.2?
rule not met

Please indicate if the recorded phospho-S6 immunofluorescence (z-score) for CN1N=C2CCN(C(=O)[C@@H](COCc3ccccc3)NC(=O)C(C)(C)N)C[C@@]2(Cc2ccccc2)C1=O [Capromorelin (Tartrate)] (compound 10 µM) meets or exceeds 0.2.
rule not met

// inclusive: phospho-S6 immunofluorescence (z-score) at least 0.2? input: Cc1[nH]cnc1CN1CCc2c(c3ccccc3n2C)C1=O [Alosetron (Hydrochloride)] (compound 10 µM)
rule met

Decide: is the reported value of phospho-S6 immunofluorescence (z-score) for COc1cccc(-c2c(C)n(Cc3c(F)cccc3C(F)(F)F)c(=O)n(C[C@H](NCCCC(=O)O)c3ccccc3)c2=O)c1F [Elagolix] (compound 10 µM) equal to or greater than 0.2?
rule met

State whether the measured phospho-S6 immunofluorescence (z-score) reaches 0.2, counting equality as reaching it, for CC(=O)Oc1cc(C(C)C)c(OCCN(C)C)cc1C [Moxisylyte (hydrochloride)] (compound 10 µM)
rule met

Quick check: does N=C(N)NCCCCN [Agmatine (sulfate)] (compound 10 µM) have phospho-S6 immunofluorescence (z-score) greater than or equal to 0.2?
rule met

API: above_or_equal(metric=phospho-S6 immunofluorescence (z-score), cutoff=0.2) for item CNS(=O)(=O)Cc1ccc2[nH]cc(CCN(C)C)c2c1 [Sumatriptan (succinate)] (compound 10 µM)
rule not met

Confirm if phospho-S6 immunofluorescence (z-score) reported for the compound Cc1nn(C)c2c1C(c1ccc(C(F)(F)F)cc1)C(C#N)=C(N)O2 (stereo unspecified) (compound 10 µM) is 0.2 or above.
rule not met

State whether the measured phospho-S6 immunofluorescence (z-score) reaches 0.2, counting equality as reaching it, for Cc1ccc(C(=O)Nc2ccc(S(=O)(=O)O)c3cc(S(=O)(=O)O)cc(S(=O)(=O)O)c23)cc1NC(=O)c1cccc(NC(=O)Nc2cccc(C(=O)Nc3cc(C(=O)Nc4ccc(S(=O)(=O)O)c5cc(S(=O)(=O)O)cc(S(=O)(=O)O)c45)ccc3C)c2)c1 [Suramin (sodium salt)] (compound 10 µM)
rule met

# bool: phospho-S6 immunofluorescence (z-score) of CNC[C@H](O)c1ccc(O)c(O)c1 [L-Epinephrine (Bitartrate)] (compound 10 µM) >= 0.2
rule met

Entry CN(C)CCC(c1ccc(Br)cc1)c1ccccn1 (stereo unspecified) [Brompheniramine (maleate)] (compound 10 µM) : is its phospho-S6 immunofluorescence (z-score) no less than 0.2?
rule met

Check the entry COc1cc2nc(N3CCN(C(=O)c4ccco4)CC3)nc(N)c2cc1OC [Prazosin (hydrochloride)] (compound 10 µM) : does phospho-S6 immunofluorescence (z-score) equal or exceed 0.2?
rule met

Tell me whether phospho-S6 immunofluorescence (z-score) is at least 0.2 here: CCCN(CCC)CCc1cccc2c1CC(=O)N2 [Ropinirole (hydrochloride)] (compound 10 µM)
rule met

Test whether the compound OCc1ccc(-c2nn(Cc3ccccc3)c3ccccc23)o1 [Lificiguat] (compound 10 µM) records phospho-S6 immunofluorescence (z-score) of 0.2 or higher.
rule met

Say whether C[N+]1(C)[C@@H]2C[C@@H](OC(=O)C(O)(c3cccs3)c3cccs3)C[C@H]1[C@@H]1O[C@@H]12 [Tiotropium (Bromide)] (compound 10 µM) shows phospho-S6 immunofluorescence (z-score) of 0.2 or more.
rule not met

Identify whether the reported phospho-S6 immunofluorescence (z-score) of the following compound is 0.2 or greater: NCCCCN(Cc1nc2ccccc2[nH]1)[C@H]1CCCc2cccnc21 [AMD-070 (hydrochloride)] (compound 10 µM)
rule not met

Given CC(C)C[C@H](NC(=O)[C@@H](COC(C)(C)C)NC(=O)[C@H](Cc1ccc(O)cc1)NC(=O)[C@H](CO)NC(=O)[C@H](Cc1c[nH]c2ccccc12)NC(=O)[C@H](Cc1cnc[nH]1)NC(=O)[C@@H]1CCC(=O)N1)C(=O)N[C@@H](CCCNC(=N)N)C(=O)N1CCC[C@H]1C(=O)NNC(N)=O [Goserelin (acetate)] (compound 10 µM) , state whether its phospho-S6 immunofluorescence (z-score) is at least 0.2.
rule not met

State whether the measured phospho-S6 immunofluorescence (z-score) reaches 0.2, counting equality as reaching it, for CN(C)CCC=C1c2ccccc2C=Cc2ccccc21 [Cyclobenzaprine (hydrochloride)] (compound 10 µM)
rule met

# check: phospho-S6 immunofluorescence (z-score) of CN1CCN(CCCN2c3ccccc3Sc3ccc(C(F)(F)F)cc32)CC1 [Trifluoperazine (dihydrochloride)] (compound 10 µM) is greater than or equal to 0.2
rule not met

# bool: phospho-S6 immunofluorescence (z-score) of C[C@H](N)[C@H](O)c1cccc(O)c1 [Metaraminol (tartrate)] (compound 10 µM) >= 0.2
rule met

Does Cn1c(=O)c2nc[nH]c2n(C)c1=O [Theophylline] (compound 10 µM) have a reported phospho-S6 immunofluorescence (z-score) of at least 0.2?
rule not met

Form field: phospho-S6 immunofluorescence (z-score) at least 0.2? Entry: CC(C)NC[C@H](O)COc1ccc(CCOCC2CC2)cc1 [Levobetaxolol (hydrochloride)] (compound 10 µM)
rule not met

Quick check: does CC(NCCc1ccc(O)cc1)C(O)c1ccc(O)cc1 (stereo unspecified) [Ritodrine (hydrochloride)] (compound 10 µM) have phospho-S6 immunofluorescence (z-score) greater than or equal to 0.2?
rule not met

Tell me whether phospho-S6 immunofluorescence (z-score) is at least 0.2 here: CC1(C)O[C@@H]2C[C@H]3[C@@H]4C[C@H](F)C5=CC(=O)C=C[C@]5(C)[C@@]4(F)[C@@H](O)C[C@]3(C)[C@]2(C(=O)CO)O1 [Fluocinolone (Acetonide)] (compound 10 µM)
rule not met
